- SYSTEM_UNDER_TEST: T1, TNFR1 (Homo sapiens, UniProt P19438)
- T1 chain: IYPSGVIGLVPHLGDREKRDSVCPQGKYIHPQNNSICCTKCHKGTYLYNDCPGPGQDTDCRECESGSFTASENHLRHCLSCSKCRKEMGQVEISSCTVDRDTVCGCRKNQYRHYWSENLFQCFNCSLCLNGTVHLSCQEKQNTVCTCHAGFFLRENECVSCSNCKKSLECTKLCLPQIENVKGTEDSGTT
- ASSAY_INFO: yeast display SC50
READOUT: apparent Kd (screen) (nM)
Dear colleague, please return just the value in nM, with no unit written.

Example cases with answers are listed next.
K85M (designed binder) SMEEEVEKAAKEYEKKKKEAIEKHLEKLKAKDKEAAERFLKELEEAAKEYAKDEAKTMSEEEAKRRAKKYKEKVLLSELSEEEQMEIKEAEEKLVRTILKYVEEAAK ... 0.956
K15C (designed binder) SMEEEVEKAAKEYECKKKEAIEKHLEKLKAKDKEAAERFLKELEEAAKEYAKDEAKTMSEEEAKRRAKKYKEKVLLSELSEEEQKEIKEAEEKLVRTILKYVEEAAK ... 1.27
K8P (designed binder) SMEEEVEPAAKEYEKKKKEAIEKHLEKLKAKDKEAAERFLKELEEAAKEYAKDEAKTMSEEEAKRRAKKYKEKVLLSELSEEEQKEIKEAEEKLVRTILKYVEEAAK ... 3.63

Turning to the following binder.
# input What value of apparent Kd (screen) has been reported for the following binder? K23A (designed binder) SMEEEVEKAAKEYEKKKKEAIEAHLEKLKAKDKEAAERFLKELEEAAKEYAKDEAKTMSEEEAKRRAKKYKEKVLLSELSEEEQKEIKEAEEKLVRTILKYVEEAAK
# output 0.446
